- SUBJECT OF TEST: Cbl-b (Homo sapiens, UniProt Q13191)
- Sequence (Q13191 36-427): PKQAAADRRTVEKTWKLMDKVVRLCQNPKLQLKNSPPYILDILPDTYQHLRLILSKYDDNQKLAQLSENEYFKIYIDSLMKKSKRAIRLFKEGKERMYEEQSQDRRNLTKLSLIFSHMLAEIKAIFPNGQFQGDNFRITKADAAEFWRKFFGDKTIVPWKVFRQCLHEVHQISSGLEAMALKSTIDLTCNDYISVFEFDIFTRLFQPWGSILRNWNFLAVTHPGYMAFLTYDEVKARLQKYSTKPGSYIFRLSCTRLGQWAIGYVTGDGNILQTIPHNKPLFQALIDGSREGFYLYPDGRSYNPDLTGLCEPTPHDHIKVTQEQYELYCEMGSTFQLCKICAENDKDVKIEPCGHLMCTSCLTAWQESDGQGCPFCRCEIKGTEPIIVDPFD
- ASSAY PROCEDURE: Cbl-b activity assay (Cbl-b inhibition assay), TR-FRET of Cbl-b interaction with UbcH5B-Ub
- Assay type: biochemical
- MEASUREMENT CONDITIONS: assay buffer with 100 mM NaCl, 60 nM Src kinase; read-out: Cbl-b activity IC50
- Experimental: The ability of candidate compounds to inhibit Cbl-b activity was measured by monitoring the interaction of Cbl-b with UbcH5B-Ub in the presence of the candidate compound. Fluorescently labeled UbcH5B-Ub was prepared by conjugating ubiquitin (Ub), labeled at its N-terminus with Bodipy-Fluorescein, to UbcH5B, an E2 enzyme, harboring a cysteine to lysine mutation at position 85. […]
pIC50: −log10 of the molar value.
ENDPOINT: pIC50

COMPOUND: C[C@H](Cc1n[nH]cc1CO)c1cccc(N2Cc3c(cccc3C(F)(F)F)C2=O)c1 [Compound 271b]
pIC50: 5.52 to 6.00
//
COMPOUND: C[C@H](Sc1nncn1C)c1cccc(NC(=O)c2cccc(OC(F)(F)F)c2)c1
pIC50: 5.00 to 5.52
//
COMPOUND: CN1C[C@H]2C[C@@H]1CN2c1cc2c(c(C(F)(F)F)c1)CN(c1cccc(C3(Cc4nncn4C)COC3)c1)C2=O
pIC50: > 7.00
//
COMPOUND: C[C@H](Cc1nncn1C)c1cccc(N2Cc3c(cc([C@@H](C)N4CC[C@H](F)C4)cc3C(F)(F)F)C2=O)c1
pIC50: > 7.00

I would be grateful if you could provide pIC50 for each of the following entries.
1. CNC(=O)COc1ccc2cnc(C(=O)Nc3cccc([C@H](C)Sc4nncn4C)c3)cc2c1 [Compound 306a]
2. C[C@H](Cc1nncn1C)c1cc(F)cc(N2Cc3c(cccc3C(F)(F)F)C2=O)c1 [Compound 281a]
3. CC(Cc1nncn1C)c1cc(F)cc(N2Cc3c(cccc3C(F)(F)F)C2=O)c1 (stereo not shown)
4. C[C@H](Cc1nncn1C)c1cccc(NC(=O)c2cccc(C(F)(F)F)n2)c1 [Compound 183a]
5. C[C@H](Cc1nncn1C)c1cc(-c2cn[nH]c2)nc(N2Cc3c(cccc3C(F)(F)F)C2=O)c1
6. Cn1cnnc1CC1(c2cccc(N3Cc4c(cc(CN5Cc6ccc(Cl)cc6C5)cc4C(F)(F)F)C3=O)c2)COC1

*A*
1. 6.52 to 7.00
2. 6.52 to 7.00
3. 6.52 to 7.00
4. > 7.00
5. 6.00 to 6.52
6. > 7.00

Data credit: patent US20220324835A1
